logD for assorted compounds
experiment: Log D7.4 shake-flask octanol-water
Assay type: physicochemical
recordedConditions: pH 7.4
Respond with the number and no other words.

Below, 2 compounds whose answers are already recorded.
Cc1cc2c(Nc3cnccn3)ccnc2cc1-c1cnc(N2CCN(C)CC2)nc1: 3.3
Cc1cc2c(Nc3cnccn3)ccnc2cc1-c1cnc(N2CCCN(C)CC2)nc1: 2.5

Quick note, logD for CN1CCN(c2ncc(-c3ccc4c(NCCN5CCCC5)ccnc4c3)cn2)CC1 landed at 1.2

Consider c1cc(-c2ccc3c(c2)ncc2c4ccccc4[nH]c32)cc(N2CCOCC2)c1 . Its measured logD is 5.1

Sample CN1CCN(c2ncc(-c3ccc4c(NC5CCOCC5)ccnc4c3)cn2)CC1 ; logD observed: 1.7

Lab book: logD of c1cnc(Nc2ccnc3cc(-c4cnc(N5CCCNCC5)nc4)ccc23)cn1 noted as 1.8

Query CCCN1CCN(c2ncc(-c3ccc4c(Nc5cnccn5)ccnc4c3)cn2)CC1 yields logD of 4.2

The recorded logD for O=C(O)CN1CCN(c2ncc(-c3ccc4c(Nc5cnccn5)ccnc4c3)cn2)CC1 is 0.7

The recorded logD for COC(=O)C1CCCN1c1ncc(-c2ccc3c(Nc4cnccn4)ccnc3c2)cn1 (stereo not drawn) is 3.5

compound CN1CCN(c2ncc(-c3ccc4c(NC5CCC(N(C)C)CC5)ccnc4c3)cn2)CC1 (stereo not drawn) , logD observed: 0.3

The reported logD of the compound Cc1ccc2[nH]c3c4ccc(-c5cnc(N6CCCN(C)CC6)nc5)cc4ncc3c2c1 was 5

Record summary for COc1ccc(NC(=O)c2ccc(-c3cccc(N4CCOCC4)c3)cc2O)cc1Cl : reported logD = 4.7
